Parameter: pIC50. Scope: all listed entries.
# Tested on: KRAS G12V dependent lung adenocarcinoma cell line, NCI-H441
# Protocol notes: Cellular pERK (Thr202/Tyr204) FRET/HTRF assay
# Format: cell-based
# Measurement parameters: Homo sapiens, NCI-H441, cellular pERK (Thr202/Tyr204) HTRF, NCI-H441 cells
pIC50: −log10 of the molar value.

Examples from the recorded data:
1) C=C1CN2CCC[C@@]2(COc2nc(N3CCCC[C@@H]4[C@@H](F)[C@@H]43)c3cnc(-c4cc(N)cc(Cl)c4C(F)(F)F)c(F)c3n2)C1	5.00 to 6.30
2) C=C1CN2CCC[C@@]2(COc2nc(N3CCCC[C@H]4[C@H](F)[C@H]43)c3cnc(-c4cc(N)c(F)c(C)c4C(F)(F)F)c(F)c3n2)C1	6.30 to 7.30

Moving on to the next compound.
Ask: // query pIC50 value for entry [2H]C([2H])(F)Oc1c(F)ccc2cccc(-c3ncc4c(N5CCOC[C@H]6[C@H](F)[C@H]65)nc(OC[C@@]56CCCN5C/C(=C/F)C6)nc4c3F)c12
Reply: > 7.30
